# TESTED_SYSTEM: T1, human glycophorin A on human red blood cells or red blood cell membranes (human, UniProt P02724 20-150)
# T1 construct: whole, on cells; also called hRBC; human RBC membranes
# T1 sequence (looked up): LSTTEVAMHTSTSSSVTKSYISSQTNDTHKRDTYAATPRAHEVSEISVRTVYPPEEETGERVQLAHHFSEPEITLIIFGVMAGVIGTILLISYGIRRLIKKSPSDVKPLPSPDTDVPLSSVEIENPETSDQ
# TEST_DETAILS: SPR (Biacore), Fab on human RBC membranes;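 further: human RBC membranes captured on an L1 sensor chip, Fab fragments passed over as analyte, binding kinetics read by surface plasmon resonance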
pKd: −log10 of the molar value.
Threshold check on pKd: at or above 10 gives t, strictly below gives f.

Answered examples (5):
* TPP-7793, affinity matured 6C12 Fab (Fab, V domains shown, Tested as Fab) VH: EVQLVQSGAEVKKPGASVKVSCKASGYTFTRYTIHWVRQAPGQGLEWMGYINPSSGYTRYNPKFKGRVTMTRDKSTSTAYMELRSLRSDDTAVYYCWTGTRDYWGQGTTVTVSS VL: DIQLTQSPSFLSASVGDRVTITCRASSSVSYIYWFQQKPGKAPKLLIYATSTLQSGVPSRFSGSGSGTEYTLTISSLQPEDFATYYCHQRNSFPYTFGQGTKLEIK | t
* TPP-7782, affinity matured 6C12 Fab (Fab, V domains shown, Tested as Fab) VH: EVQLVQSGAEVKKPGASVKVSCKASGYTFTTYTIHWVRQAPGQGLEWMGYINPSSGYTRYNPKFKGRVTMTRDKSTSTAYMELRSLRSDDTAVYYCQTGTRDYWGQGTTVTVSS VL: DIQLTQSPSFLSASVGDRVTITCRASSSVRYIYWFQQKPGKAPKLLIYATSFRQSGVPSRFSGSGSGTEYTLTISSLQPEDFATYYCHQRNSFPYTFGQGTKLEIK | t
* TPP-7787, affinity matured 6C12 Fab (Fab, V domains shown, Tested as Fab) VH: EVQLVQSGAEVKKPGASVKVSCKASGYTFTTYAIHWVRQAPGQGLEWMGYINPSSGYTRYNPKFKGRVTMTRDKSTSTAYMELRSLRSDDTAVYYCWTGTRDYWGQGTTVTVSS VL: DIQLTQSPSFLSASVGDRVTITCRASSSVSYIYWFQQKPGKAPKLLIYATSTRQSGVPSRFSGSGSGTEYTLTISSLQPEDFATYYCHQRNSFPYTFGQGTKLEIK | t
* TPP-5906, humanized and germlined 6C12 Fab; VL: (S24R, A26S, S49A, P54Q, F95Y); VH: (I48M, D56G, D66G, L70M, T72R) (Fab, V domains shown, The text says that a 6xHIS tag is present on the Fabs in the peptide ELISA; it is not in the printed chains) VH: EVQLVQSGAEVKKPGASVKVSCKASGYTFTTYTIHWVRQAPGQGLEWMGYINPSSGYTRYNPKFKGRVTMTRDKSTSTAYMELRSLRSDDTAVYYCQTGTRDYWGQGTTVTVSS VL: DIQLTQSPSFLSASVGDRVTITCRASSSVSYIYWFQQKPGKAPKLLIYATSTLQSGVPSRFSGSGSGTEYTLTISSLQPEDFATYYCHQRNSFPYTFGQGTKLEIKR | f
* TPP-7789, affinity matured 6C12 Fab (Fab, V domains shown, Tested as Fab) VH: EVQLVQSGAEVKKPGASVKVSCKASGYTFTTYTIHWVRQAPGQGLEWMGYINPSSGYTRYNPKFKHRVTMTRDKSTSTAYMELRSLRSDDTAVYYCWTGTRDYWGQGTTVTVSS VL: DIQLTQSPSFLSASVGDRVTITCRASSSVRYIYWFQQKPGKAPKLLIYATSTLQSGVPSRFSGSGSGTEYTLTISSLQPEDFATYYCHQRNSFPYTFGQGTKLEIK | t

Here is another binder to look at.
Entry TPP-7778, affinity matured 6C12 Fab (Fab, V domains shown, Tested as Fab) VH: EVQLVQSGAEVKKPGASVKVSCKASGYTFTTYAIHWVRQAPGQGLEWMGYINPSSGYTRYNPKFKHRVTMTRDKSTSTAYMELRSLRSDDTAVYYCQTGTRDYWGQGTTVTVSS VL: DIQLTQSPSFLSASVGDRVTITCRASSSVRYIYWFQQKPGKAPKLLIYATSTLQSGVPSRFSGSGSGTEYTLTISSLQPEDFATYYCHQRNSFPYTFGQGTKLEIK : is its pKd no less than 10?
t
